Target: Corticotropin-releasing factor receptor 2/Corticotropin-releasing factor-binding protein (Homo sapiens, UniProt P24387+Q13324)
Sequence (Q13324 whole entry): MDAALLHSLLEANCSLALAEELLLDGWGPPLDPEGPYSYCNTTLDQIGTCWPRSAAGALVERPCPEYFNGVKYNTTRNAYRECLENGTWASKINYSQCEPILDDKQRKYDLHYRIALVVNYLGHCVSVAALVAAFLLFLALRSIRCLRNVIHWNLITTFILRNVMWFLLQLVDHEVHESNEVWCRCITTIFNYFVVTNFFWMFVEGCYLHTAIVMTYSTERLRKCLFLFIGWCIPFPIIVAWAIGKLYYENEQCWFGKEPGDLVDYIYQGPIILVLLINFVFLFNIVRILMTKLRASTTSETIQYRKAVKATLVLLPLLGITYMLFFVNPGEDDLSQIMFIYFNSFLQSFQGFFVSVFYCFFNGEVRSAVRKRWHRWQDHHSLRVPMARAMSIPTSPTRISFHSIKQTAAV
Sequence (P24387 whole entry): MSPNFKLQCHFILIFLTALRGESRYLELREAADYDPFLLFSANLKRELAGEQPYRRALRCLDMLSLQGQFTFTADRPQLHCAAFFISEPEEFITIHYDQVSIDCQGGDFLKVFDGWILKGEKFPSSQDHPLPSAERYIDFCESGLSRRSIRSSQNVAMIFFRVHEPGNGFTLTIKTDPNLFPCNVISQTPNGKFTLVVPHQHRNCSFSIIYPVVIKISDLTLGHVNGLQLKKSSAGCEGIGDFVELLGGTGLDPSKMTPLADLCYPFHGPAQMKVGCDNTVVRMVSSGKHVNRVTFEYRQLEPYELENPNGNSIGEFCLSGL
Assay: Dose Response confirmation of uHTS hits for small molecule antagonists of the CRF-binding protein and CRF-R2 receptor complex.
Format: functional
Conditions: read-out: IC50_Mean
The source made the active and inactive calls.
Bench note: report the call from t (active), f (inactive)

Consider the following illustrative entries.
COC(=O)c1ccc(CN2C(=O)C(C)N(C(=O)c3c(F)cccc3F)c3ccccc32)cc1 (stereo not drawn) ... t
O=C(NCCN1CCN(C(=O)NC2CCCCC2)CC1)NC1CCCCC1 ... f

Would you mind telling me which call this test gave O=[N+]([O-])c1cccc(-c2nc(-c3ccccn3)no2)c1 ? f

###

target: Heat shock factor protein 1 (Mus musculus); assay: HSF1 potentiators in luciferase reporter cells, confirmation, cell-based, NIH3T3, luminescence, dose retest (AID 435004); type: functional;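 also: stress induced by proteasome inhibitor MG132 added 30 min after compound; luciferase reporter driven by HSF1 response element in NIH3T3 cells; actives raise luminescence as potentiators of the MG132 stress response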
Calls of active or inactive are those of the source.
MEASUREMENT KIND: EC50

Please review the entries below; each comes with its answer.
Cc1cc(C(=O)c2ccc(C(C)(C)C)cc2)c(NC(=O)CCl)s1 ... 7.73 µM (active)
c1ccc2c(Nc3nnc(-c4ccncc4)s3)cccc2c1 ... 42.1 µM (active)

Now for a further compound.
Need EC50 of OCC1(CCCc2ccccc2)CCN(C2CCSCC2)CC1 , thanks. > 260 µM (inactive)

###

assay: inhibitors of intracellular T. cruzi replication, confirmation, NIH3T3 host cells, beta-gal luminescence (AID 2044); type: functional, cell-based;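 also: intracellular parasites grown in NIH/3T3 mouse fibroblasts as host cells; luminescent beta-galactosidase reporter signal from transgenic T. cruzi replicating inside host cells; inhibitors lower the luminescence signal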
Activity calls are given as the source filed them.
MEASUREMENT KIND: EC50

Please review the entries below; each comes with its answer.
COc1ccccc1CN1CCN(Cc2nc(-c3cccs3)no2)CC1 ... 841 nM (active)
Cn1cccc1/C=C1\SC(=S)N(Nc2ccccc2)C1=O ... 2670 nM (active)
c1ccc2c(Nc3nnc(-c4ccncc4)s3)cccc2c1 ... 1590 nM (active)

Now for a further molecule.
Need EC50 of COc1cc(/C=C/c2ccc3cccc(O)c3n2)cc(Br)c1OC , thanks. 699 nM (active)

###

target: Heat shock factor protein 1 (Mus musculus, UniProt P38532); assay: inhibition of MG132-induced HSE-luciferase signal, confirmation, cell-based, NIH3T3, luminescence, dose retest (AID 2382); format: functional;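 also: NIH3T3 fibroblasts with HSF1-driven luciferase reporter stressed by proteasome inhibitor MG132; luminescence from HSF1-driven luciferase expression after 8 hours of MG132 stress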
Sequence (P38532 whole entry): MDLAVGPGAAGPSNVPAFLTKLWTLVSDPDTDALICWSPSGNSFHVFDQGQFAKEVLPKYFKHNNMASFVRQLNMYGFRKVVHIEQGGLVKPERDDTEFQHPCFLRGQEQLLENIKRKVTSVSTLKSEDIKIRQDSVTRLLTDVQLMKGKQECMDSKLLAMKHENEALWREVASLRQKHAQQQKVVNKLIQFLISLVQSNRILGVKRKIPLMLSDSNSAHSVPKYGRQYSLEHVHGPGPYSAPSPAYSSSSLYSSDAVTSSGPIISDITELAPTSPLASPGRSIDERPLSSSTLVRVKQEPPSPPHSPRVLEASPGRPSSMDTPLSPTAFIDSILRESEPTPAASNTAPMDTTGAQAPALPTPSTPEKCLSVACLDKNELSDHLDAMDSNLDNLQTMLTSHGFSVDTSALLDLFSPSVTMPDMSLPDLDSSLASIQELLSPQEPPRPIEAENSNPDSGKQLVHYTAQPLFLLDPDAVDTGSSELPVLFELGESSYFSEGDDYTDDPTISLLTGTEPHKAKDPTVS
Active and inactive are the calls of the source.
Recorded EC50 for the following compounds

CC(=O)Nc1ccc(NC(=O)CSc2cn(CC(=O)N3CCOCC3)c3ccccc23)cc1 ... > 195 µM (not active)
CC(=O)c1cnn(-c2c(Cl)cc(Cl)cc2Cl)c1C ... > 195 µM (not active)
Cc1ccc(OC(=O)c2ccc3nc(C)sc3c2)cc1 ... 0.737 µM (active)

Now for a further compound.
Need EC50 of Cc1cccc(C)c1NC(=O)CN1C(=O)NC(C)(CCc2ccccc2)C1=O (centres undefined) , thanks. > 195 µM (not active)
